- System: SF-295 CNS
- method_notes: NCI-60 one-dose screen, 48 h
- condition_info: 10 µM unless noted
This is part of a sample that, as a whole, favours compounds with a hit. Of some 83,000 tested, about 20% had one in any assay. Active and inactive are the calls of the source. Rule for the calls: active = growth percent below 10; inactive = the rest.
Your answer must be one of the following: active, inactive

The examples below pair each entry with its known result.
- molecule: "COc1ccc(C(=O)N=Nc2c(O)n(C)c3ccccc23)cc1"
  assayed_system: "SF-295 CNS"
  qualitative_label: "inactive"
- molecule: "N#Cc1c(-c2ccc(Cl)cc2)nc2c(c(-c3ccccc3)nn2-c2ccccc2)c1-c1ccc(O)cc1"
  assayed_system: "SF-295 CNS"
  qualitative_label: "active"
- molecule: "O=C(O)CCC/C=C\\C[C@H]1C=CC(=O)/C1=C/C[C@@H](O)CCc1cccc(C(F)(F)F)c1"
  assayed_system: "SF-295 CNS"
  qualitative_label: "active"

[Q] GET /call?item= O=C1COCCN1c1ccc(NCc2cn(C(=O)c3ccc(Cl)cc3)c3ccccc23)cc1 returns the recorded outcome of this test.
[A] inactive

[Q] GET /call?item= CNc1nc2c(s1)C(c1cc(F)ccc1F)CC(=O)N2 (configuration not stated) returns the recorded outcome of this test.
[A] inactive

[Q] GET /call?item= CCOC(=O)C1=C(N)Oc2c(sc3c(C)cccc23)C1c1ccc(OC)cc1 (configuration not stated) returns the recorded outcome of this test.
[A] inactive

[Q] GET /call?item= O=[N+]([O-])c1ccc(Oc2nc(Nc3ccc(O[C@H]4CO[C@H]5[C@@H]4OC[C@@H]5O)c(Cl)c3)ncc2F)c(Cl)c1 returns the recorded outcome of this test.
[A] inactive

[Q] GET /call?item= Cc1oc2nc[nH]c(=O)c2c1C(=O)/C=C/c1ccc(Br)cc1 returns the recorded outcome of this test.
[A] inactive

[Q] GET /call?item= COc1cc(CCC[P+](c2ccccc2)(c2ccccc2)c2ccccc2)c(OC)c(OC)c1OC returns the recorded outcome of this test.
[A] inactive
